Listed binders paired with reported kd var/kd wt
# system: T1, human TGFβ2 (human, UniProt P61812 303-414)
# T1 construct: also called TGFβ2 homodimer
# T1 sequence: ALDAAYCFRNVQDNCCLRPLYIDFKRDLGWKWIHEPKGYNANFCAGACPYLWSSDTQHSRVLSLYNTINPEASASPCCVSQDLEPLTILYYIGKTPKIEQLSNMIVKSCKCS
# experimental.protocol: Biacore off-rate vs wt GC1008, 50 nM
Simply state the number, no unit and no words.

>  <binder>
I52L (antibody, V domains shown, GC1008 IgG4 variant) VH: QVQLVQSGAEVKKPGSSVKVSCKASGYTFSSNVISWVRQAPGQGLEWMGGVLPIVDIANYAQRFKGRVTITADESTSTTYMELSSLRSEDTAVYYCASTLGLVLDAMDYWGQGTLVTVSS VL: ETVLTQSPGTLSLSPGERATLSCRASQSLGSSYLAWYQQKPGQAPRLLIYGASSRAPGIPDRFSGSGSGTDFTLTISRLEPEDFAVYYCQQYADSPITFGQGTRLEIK

>  <kd var/kd wt>
1.4

$$$$

# lookup: kd var/kd wt of Y27W (antibody, V domains shown, GC1008 IgG4 variant) VH: QVQLVQSGAEVKKPGSSVKVSCKASGWTFSSNVISWVRQAPGQGLEWMGGVIPIVDIANYAQRFKGRVTITADESTSTTYMELSSLRSEDTAVYYCASTLGLVLDAMDYWGQGTLVTVSS VL: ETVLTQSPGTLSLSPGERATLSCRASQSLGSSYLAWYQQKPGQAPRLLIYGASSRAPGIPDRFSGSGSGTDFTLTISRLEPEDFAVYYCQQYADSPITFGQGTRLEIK
1.3

Input I54N (antibody, V domains shown, GC1008 IgG4 variant) VH: QVQLVQSGAEVKKPGSSVKVSCKASGYTFSSNVISWVRQAPGQGLEWMGGVIPNVDIANYAQRFKGRVTITADESTSTTYMELSSLRSEDTAVYYCASTLGLVLDAMDYWGQGTLVTVSS VL: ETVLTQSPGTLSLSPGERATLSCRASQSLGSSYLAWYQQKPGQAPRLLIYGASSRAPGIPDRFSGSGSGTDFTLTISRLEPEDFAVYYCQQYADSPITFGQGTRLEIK
2.4
